# System: Fibroblast
# TEST_DESCRIPTION: Multiplex assay against human fibroblast
# Format: toxicity, cell-based
# SETUP_CONDITIONS: 48 h, 10 µM, compound concentration 10 uM, replicate 2
Assign met to entries whose Population Healthy Nuclei (%) meets or exceeds 50%; assign not met to the rest.

{"columns": ["COMPOUND", "CLASS_NAME"],
 "data": [
  ["C[C@H](NC(=O)c1c(C(F)F)nn(C)c1Oc1cccc(C(F)(F)F)c1)c1ccc(C(=O)O)cc1 [PALUPIPRANT]", "not met"],
  ["Oc1c(CN2CCN(c3ccccn3)CC2)cc(Cl)c2cccnc12", "not met"],
  ["COc1cc(NC(=O)CCN2CCC(OC(=O)Nc3ccccc3-c3ccccc3)CC2)c(Cl)cc1CNC[C@H](O)c1ccc(O)c2[nH]c(=O)ccc12 [BATEFENTEROL]", "not met"],
  ["N#Cc1c(N)nc(SCc2csc(-c3ccc(Cl)cc3)n2)c(C#N)c1-c1ccc(OCCO)cc1 [CAPADENOSON]", "not met"],
  ["CC1(COc2ccc3c(c2)ncn3-c2ccc3cccc(N4CCC(N)CC4)c3n2)COC1 [CRENOLANIB]", "not met"],
  ["CSc1ccccc1N1CCN(CCCCCC(=O)NC2CCCc3ccccc32)CC1.Cl (centres undefined)", "met"],
  ["CCNC1(C(N)=O)CCN(c2ncnc3c2nc(-c2ccccc2Cl)n3-c2ccc(Cl)cc2)CC1 [OTENABANT]", "not met"],
  ["Cc1nc2ccc(Oc3ccc(F)cc3)cc2c(=O)n1C[C@H]1CCCN(C(C)C)C1.Cl", "met"],
  ["CNC[C@H](O)c1ccc(O)c(O)c1 [EPINEPHRINE]", "not met"],
  ["Cc1ccc(C(C)(O)c2nc3ccccc3s2)c(C)c1 (centres undefined)", "met"],
  ["CC(=O)NCCc1c(Cc2ccccc2)[nH]c2ccccc12 [LUZINDOLE]", "met"],
  ["CN1CCN(c2nc3cc(C(F)(F)F)ccc3n3cccc23)CC1.O=C(O)/C=C\\C(=O)O.O=C(O)/C=C\\C(=O)O", "met"],
  ["COc1ccc2c(c1)C(C(=O)N(Cc1ccc(N(C)C)cc1)c1ccc(C(C)C)cc1)CCC2.Cl (centres undefined)", "met"],
  ["COc1cc(C(=O)N(CCCc2ccccc2)Cc2ccc(CC(=O)O)cc2)cc(OC)c1C", "met"],
  ["CN(C)c1ccnc2sc3c(=O)n(N4CCCCCC4)cnc3c12", "not met"],
  ["CCOc1c2c(c(OCC)c3ncccc13)CN(c1ccc(CS(=O)(=O)NC(=O)Cc3ccccc3OC)cc1C)C2=O", "not met"]
]}

###

# Tested on: U2OS
# TEST_DESCRIPTION: Multiplex assay against U2OS
# Assay type: toxicity, cell-based
# SETUP_CONDITIONS: human, 12 h, 1 µM, compound concentration 1 uM, replicate 1
Assign Y to entries whose Population Membrane Permeable-Phenotype (%) meets or exceeds 5%; assign N to the rest.

{"columns": ["COMPOUND", "CLASS_NAME"],
 "data": [
  ["N[C@@]1(C(=O)O)CO[C@H]2[C@H](C(=O)O)[C@H]21 [LY-379268]", "N"],
  ["CCCN1CCC[C@@H]2Cc3n[nH]cc3C[C@H]21.Cl [QUINPIROLE HYDROCHLORIDE]", "Y"],
  ["CCNC1(C(N)=O)CCN(c2ncnc3c2nc(-c2ccccc2Cl)n3-c2ccc(Cl)cc2)CC1 [OTENABANT]", "Y"],
  ["O=C(O)Cc1ccccc1Nc1c(Cl)cccc1Cl [DICLOFENAC]", "N"],
  ["CN1CCN2c3ncccc3Cc3ccccc3C2C1 (centres undefined) [MIRTAZAPINE]", "N"],
  ["Oc1c(CN2CCN(c3ccccn3)CC2)cc(Cl)c2cccnc12", "N"]
]}

###

# Test system: U2OS
# TEST_DESCRIPTION: Multiplex assay against U2OS
# Assay type: toxicity, cell-based
# SETUP_CONDITIONS: human, 12 h, 1 µM, compound concentration 1 uM, replicate 2
OUTCOME_MEASURE: Population Normal (%)

{"columns": ["COMPOUND", "NUMERIC_RESULT"],
 "data": [
  ["c1cc(OCCCN2CCCCC2)ccc1CN1CCCCC1", 99],
  ["COc1ccc2c(c1)C(C(=O)N(Cc1ccc(N(C)C)cc1)c1ccc(C(C)C)cc1)CCC2.Cl (configuration not stated)", 96],
  ["CNC[C@H](O)c1ccc(O)c(O)c1 [EPINEPHRINE]", 100],
  ["CC(C)(C)c1ccc(S(=O)(=O)Nc2ccc(Cl)cc2C(=O)c2cc[n+]([O-])cc2)cc1", 99],
  ["C[C@@H]1C[C@H]2[C@@H]3CCC4=CC(=O)C=C[C@]4(C)[C@@]3(F)[C@@H](O)C[C@]2(C)[C@@]1(O)C(=O)CO", 99],
  ["N#Cc1c(N)nc(SCc2csc(-c3ccc(Cl)cc3)n2)c(C#N)c1-c1ccc(OCCO)cc1", 98],
  ["O=C(O)Cc1ccccc1Nc1c(Cl)cccc1Cl", 99],
  ["CN1CCN2c3ncccc3Cc3ccccc3C2C1 (configuration not stated)", 98],
  ["CC(=O)NCCc1c(Cc2ccccc2)[nH]c2ccccc12", 97],
  ["CC[C@H]1OC(=O)[C@H](C)[C@@H](O[C@H]2C[C@@](C)(OC)[C@@H](O)[C@H](C)O2)[C@H](C)[C@@H](O[C@@H]2O[C@H](C)C[C@H](N(C)C)[C@H]2O)[C@@]2(C)CC(C)=C(O2)[C@H](C)[C@@H](O)[C@]1(C)O", 98],
  ["CCNC1(C(N)=O)CCN(c2ncnc3c2nc(-c2ccccc2Cl)n3-c2ccc(Cl)cc2)CC1", 97],
  ["CSc1ccccc1N1CCN(CCCCCC(=O)NC2CCCc3ccccc32)CC1.Cl (configuration not stated)", 96],
  ["Cc1ccc(C(C)(O)c2nc3ccccc3s2)c(C)c1 (configuration not stated)", 99],
  ["CCCN1CCC[C@@H]2Cc3n[nH]cc3C[C@H]21.Cl [QUINPIROLE HYDROCHLORIDE]", 100],
  ["C[C@H](NC(=O)c1c(C(F)F)nn(C)c1Oc1cccc(C(F)(F)F)c1)c1ccc(C(=O)O)cc1", 99],
  ["CN(C)CCCc1cc(C(=O)Nc2ccc(-c3ccncc3)cc2)ccc1O.Cl.Cl", 99],
  ["CN1CCN(c2nc3cc(C(F)(F)F)ccc3n3cccc23)CC1.O=C(O)/C=C\\C(=O)O.O=C(O)/C=C\\C(=O)O", 99],
  ["CCCn1c(=O)c2[nH]c(C3CCCC3)nc2n(CCC)c1=O", 100],
  ["O=C(O)c1cc2ccccc2c(Cc2c(O)c(C(=O)O)cc3ccccc23)c1O", 100],
  ["Cl.Clc1ccc2nsnc2c1NC1=NCCN1 [TIZANIDINE HYDROCHLORIDE]", 98],
  ["CCOc1c2c(c(OCC)c3ncccc13)CN(c1ccc(CS(=O)(=O)NC(=O)Cc3ccccc3OC)cc1C)C2=O", 98],
  ["Cc1ccc(/C(=C\\CN2CCCC2)c2ccccn2)cc1", 96]
]}

###

# System: U2OS
# TEST_DESCRIPTION: Multiplex assay against U2OS
# Assay type: toxicity, cell-based
# SETUP_CONDITIONS: human, 24 h, 1 µM, compound concentration 1 uM, replicate 2
Response field label: string, one of rule met (Population Tubulin-Different-Phenotype (%) strictly below 4%) or rule not met.

{"columns": ["COMPOUND", "TESTED_SYSTEM", "CLASS_NAME"],
 "data": [
  ["CCCC(CCC)C(=O)O [VALPROIC ACID]", "U2OS", "rule not met"],
  ["CN(C)CCCc1cc(C(=O)Nc2ccc(-c3ccncc3)cc2)ccc1O.Cl.Cl", "U2OS", "rule not met"],
  ["Cc1nc2ccc(Oc3ccc(F)cc3)cc2c(=O)n1C[C@H]1CCCN(C(C)C)C1.Cl", "U2OS", "rule not met"],
  ["O=S(=O)(c1ccccc1)c1cnc2c(N3CCNCC3)cccc2c1 [INTEPIRDINE]", "U2OS", "rule met"],
  ["COc1ccc2c(c1)C(C(=O)N(Cc1ccc(N(C)C)cc1)c1ccc(C(C)C)cc1)CCC2.Cl (configuration not stated)", "U2OS", "rule met"],
  ["CSc1ccccc1N1CCN(CCCCCC(=O)NC2CCCc3ccccc32)CC1.Cl (configuration not stated)", "U2OS", "rule not met"],
  ["Cc1ccc(/C(=C\\CN2CCCC2)c2ccccn2)cc1 [TRIPROLIDINE]", "U2OS", "rule not met"],
  ["Cl.Clc1ccc2nsnc2c1NC1=NCCN1 [TIZANIDINE HYDROCHLORIDE]", "U2OS", "rule not met"],
  ["Oc1c(CN2CCN(c3ccccn3)CC2)cc(Cl)c2cccnc12", "U2OS", "rule not met"],
  ["O=C1COc2nccc(-c3ccccc3F)c2CN1Cc1cc(C(F)(F)F)cc(C(F)(F)F)c1", "U2OS", "rule not met"],
  ["CCNC1(C(N)=O)CCN(c2ncnc3c2nc(-c2ccccc2Cl)n3-c2ccc(Cl)cc2)CC1 [OTENABANT]", "U2OS", "rule not met"],
  ["N#Cc1c(N)nc(SCc2csc(-c3ccc(Cl)cc3)n2)c(C#N)c1-c1ccc(OCCO)cc1 [CAPADENOSON]", "U2OS", "rule met"],
  ["COc1cc(C(=O)N(CCCc2ccccc2)Cc2ccc(CC(=O)O)cc2)cc(OC)c1C", "U2OS", "rule met"],
  ["CC1(COc2ccc3c(c2)ncn3-c2ccc3cccc(N4CCC(N)CC4)c3n2)COC1 [CRENOLANIB]", "U2OS", "rule not met"],
  ["C[C@H](NC(=O)c1c(C(F)F)nn(C)c1Oc1cccc(C(F)(F)F)c1)c1ccc(C(=O)O)cc1 [PALUPIPRANT]", "U2OS", "rule not met"],
  ["CC(C)(C)c1ccc(S(=O)(=O)Nc2ccc(Cl)cc2C(=O)c2cc[n+]([O-])cc2)cc1 [VERCIRNON]", "U2OS", "rule met"],
  ["CC[C@H]1OC(=O)[C@H](C)[C@@H](O[C@H]2C[C@@](C)(OC)[C@@H](O)[C@H](C)O2)[C@H](C)[C@@H](O[C@@H]2O[C@H](C)C[C@H](N(C)C)[C@H]2O)[C@@]2(C)CC(C)=C(O2)[C@H](C)[C@@H](O)[C@]1(C)O", "U2OS", "rule not met"],
  ["Cc1ccccc1C(=O)Nc1ccc(C(=O)N2CCCC(N(C)C)c3ccccc32)cc1.Cl (configuration not stated)", "U2OS", "rule met"],
  ["C[C@H]1[C@H]2CC[C@H]3[C@@H]4CC=C5C[C@@H](N(C)C)CC[C@]5(C)[C@H]4CC[C@]23CN1C [CONESSINE]", "U2OS", "rule not met"],
  ["N[C@@]1(C(=O)O)CO[C@H]2[C@H](C(=O)O)[C@H]21 [LY-379268]", "U2OS", "rule not met"]
]}
